From: ChEMBL document CHEMBL4145551

- Tested on: HeLa
- TEST_METHOD_NOTES: Photocytotoxicity against human HeLa cells assessed as reduction in cell viability preincubated for 1 hr followed blue LED light irradiation for 10 mins and measured after 24 hrs by MTT assay
- Assay type: functional, cell-based
- MEASUREMENT_CONTEXT: light or radiation study
ATTRIBUTE_MEASURED: pIC50
Notebook: values listed as pIC50 are -log10 of the concentration (mol/L).

The compound listed as Clc1ccc(-c2nc3ccccc3c3cc4ccccn4c23)s1 shows pIC50 equal to 6.39

The compound listed as Cc1cccn2c1cc1c3ccccc3nc(-c3cccs3)c12 shows pIC50 equal to 6.26

The compound listed as c1csc(-c2nc3ccccc3c3cc4ccccn4c23)c1 shows pIC50 equal to 6.20

The compound listed as Brc1ccc2cc3c4ccccc4nc(-c4ccco4)c3n2c1 shows pIC50 equal to 6.09

The compound listed as Cc1cccn2c1cc1c3ccccc3nc(-c3ccco3)c12 shows pIC50 equal to 5.95

The compound listed as Cc1cccn2c1cc1c3ccccc3nc(-c3ccc(Cl)o3)c12 shows pIC50 equal to 5.68
